# method.summary: Example 7 pharmacokinetics assay for PKPD study (plasma, tumor, liver)
# Format: in vivo, BALB/c nude mice
# condition.context: mouse, tumor, po; 10 mg/kg, p.o., single dose; 24 h; read-out: Concentration in Tumor (mean ± SEM)
Each entry below carries its reported concentration at 24 h.
Express the result in ng/g but write the number alone.

compound	property.label	units	reported.measurement
CCN(C)S(=O)(=O)Nc1ccc(F)c(Oc2ccc3ncn(C4CC5(CCN(C6CCN(c7cc8c(cc7F)c(N7CCC(=O)NC7=O)nn8C)CC6)CC5)C4)c(=O)c3c2)c1C#N [Compound 156]	concentration at 24 h	ng/g	33.5
CCN(C)S(=O)(=O)Nc1ccc(F)c(Oc2ccc3ncc(C4CC5(CCN(C6CCC(c7cc8c(cc7F)c(N7CCC(=O)NC7=O)nn8C)CC6)CC5)C4)nc3c2)c1C#N (single isomer, unassigned) [Compound 180]	concentration at 24 h	ng/g	3.89
CCN(C)S(=O)(=O)Nc1ccc(F)c(Oc2ccc3ncn(C4CC5(CCN(C6CC7(C6)CN(c6cc8c(cc6F)c(N6CCC(=O)NC6=O)nn8C)C7)CC5)C4)c(=O)c3c2)c1C#N (stereo not shown) [Compound 141]	concentration at 24 h	ng/g	75.4

Here is the next item to consider.
[in] Fill in: concentration at 24 h of CCN(C)S(=O)(=O)Nc1ccc(F)c(Oc2ccc3ncc(OCC4CCN(C5CCC(c6cc7c(cc6F)c(N6CCC(=O)NC6=O)nn7C)CC5)CC4)nc3c2)c1C#N (single isomer, unassigned) [Compound 118] is ___
[out] 254

* * *

# target: BRAF V600E (Homo sapiens, UniProt P15056+Q96SW2, V600E)
# Construct: knock-in of the HiBiT tag to the endogenous BRAF V600E locus; host or cells: A375.10 (A375 clonal line, CRISPR HiBiT knock-in at the endogenous BRAF V600E locus)
# Sequence (P15056 whole entry V600E): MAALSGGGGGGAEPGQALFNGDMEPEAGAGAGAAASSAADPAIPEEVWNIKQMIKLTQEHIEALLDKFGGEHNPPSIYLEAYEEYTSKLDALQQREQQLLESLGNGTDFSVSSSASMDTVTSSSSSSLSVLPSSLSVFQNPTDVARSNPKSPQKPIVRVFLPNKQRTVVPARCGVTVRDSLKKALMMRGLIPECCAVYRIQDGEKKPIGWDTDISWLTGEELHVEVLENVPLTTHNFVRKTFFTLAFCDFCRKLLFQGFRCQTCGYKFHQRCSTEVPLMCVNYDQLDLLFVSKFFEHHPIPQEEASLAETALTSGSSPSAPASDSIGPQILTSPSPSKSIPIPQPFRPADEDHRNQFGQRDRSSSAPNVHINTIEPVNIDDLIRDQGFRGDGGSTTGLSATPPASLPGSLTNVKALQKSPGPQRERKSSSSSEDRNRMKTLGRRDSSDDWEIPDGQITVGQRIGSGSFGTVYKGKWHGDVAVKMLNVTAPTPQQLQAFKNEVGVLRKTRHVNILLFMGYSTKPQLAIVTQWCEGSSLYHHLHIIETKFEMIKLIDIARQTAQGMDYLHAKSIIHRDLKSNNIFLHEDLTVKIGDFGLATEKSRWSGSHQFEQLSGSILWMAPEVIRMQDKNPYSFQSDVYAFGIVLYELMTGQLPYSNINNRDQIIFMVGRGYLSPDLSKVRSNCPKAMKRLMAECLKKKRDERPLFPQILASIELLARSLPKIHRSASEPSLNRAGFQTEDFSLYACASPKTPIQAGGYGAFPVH
# Sequence (Q96SW2 whole entry): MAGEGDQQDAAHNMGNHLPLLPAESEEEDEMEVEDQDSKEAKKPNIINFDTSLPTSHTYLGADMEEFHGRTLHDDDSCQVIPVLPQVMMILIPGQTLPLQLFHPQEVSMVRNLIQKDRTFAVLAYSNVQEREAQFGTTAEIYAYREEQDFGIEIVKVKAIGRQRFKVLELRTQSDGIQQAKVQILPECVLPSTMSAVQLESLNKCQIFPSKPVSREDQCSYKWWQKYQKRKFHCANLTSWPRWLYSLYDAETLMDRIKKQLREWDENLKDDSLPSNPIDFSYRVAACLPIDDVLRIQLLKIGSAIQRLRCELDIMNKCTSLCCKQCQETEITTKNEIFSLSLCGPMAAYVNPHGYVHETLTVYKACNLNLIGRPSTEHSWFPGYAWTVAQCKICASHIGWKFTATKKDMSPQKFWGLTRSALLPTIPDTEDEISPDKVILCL
# Sequence (Q16531 whole entry partner): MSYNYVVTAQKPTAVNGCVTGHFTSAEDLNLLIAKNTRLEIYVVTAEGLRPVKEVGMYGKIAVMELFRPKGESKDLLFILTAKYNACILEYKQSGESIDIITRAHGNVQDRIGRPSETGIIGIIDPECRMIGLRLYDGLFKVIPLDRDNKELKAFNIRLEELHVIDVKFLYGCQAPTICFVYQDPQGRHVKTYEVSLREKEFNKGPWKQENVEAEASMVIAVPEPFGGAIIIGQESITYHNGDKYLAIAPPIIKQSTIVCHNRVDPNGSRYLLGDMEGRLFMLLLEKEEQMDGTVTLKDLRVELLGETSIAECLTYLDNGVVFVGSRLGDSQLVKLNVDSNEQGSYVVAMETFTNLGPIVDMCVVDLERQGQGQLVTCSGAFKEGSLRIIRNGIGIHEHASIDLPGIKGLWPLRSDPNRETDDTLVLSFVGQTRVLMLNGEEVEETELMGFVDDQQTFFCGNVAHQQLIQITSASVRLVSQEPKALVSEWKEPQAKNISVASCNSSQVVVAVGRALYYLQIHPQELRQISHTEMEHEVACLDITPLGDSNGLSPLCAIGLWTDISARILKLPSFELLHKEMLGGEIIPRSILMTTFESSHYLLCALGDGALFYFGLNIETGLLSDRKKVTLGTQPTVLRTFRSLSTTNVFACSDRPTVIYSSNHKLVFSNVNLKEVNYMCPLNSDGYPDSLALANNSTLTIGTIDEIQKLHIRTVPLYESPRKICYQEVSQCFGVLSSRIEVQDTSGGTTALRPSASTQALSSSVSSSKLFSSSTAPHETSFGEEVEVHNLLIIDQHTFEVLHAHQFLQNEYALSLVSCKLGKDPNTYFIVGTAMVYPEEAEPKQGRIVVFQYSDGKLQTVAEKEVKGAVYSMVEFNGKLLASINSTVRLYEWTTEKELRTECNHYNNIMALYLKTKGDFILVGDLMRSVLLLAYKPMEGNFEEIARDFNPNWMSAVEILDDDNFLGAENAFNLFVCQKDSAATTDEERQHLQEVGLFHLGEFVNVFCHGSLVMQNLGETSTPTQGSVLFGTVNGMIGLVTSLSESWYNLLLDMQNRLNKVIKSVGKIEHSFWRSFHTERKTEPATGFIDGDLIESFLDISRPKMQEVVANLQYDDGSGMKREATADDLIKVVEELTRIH
# method.summary: BRAF V600E HiBiT Degradation Assay
# Assay type: cell-based
# condition.context: A375.10 cells, BRAF V600E, 2 hours; residual protein remaining; read-out: HiBiT-Degradation A375.10 BRAF 2 hours Emax
# Method: Compounds of this invention were tested for degradation of mutant BRAF V600E using the HiBiT assay, a luminescence-based assay for quantification of cellular protein levels using the Nano-Glo® HiBiT Lytic Detection System (Catalog No. N3050, Promega, Madison, WI USA). […] Data were analyzed with a 4-parameter logistic fit to generate sigmoidal dose-response curves. […]
Each entry below carries its reported Emax.

molecule	target	Emax
CCN(C)S(=O)(=O)Nc1ccc(F)c(Oc2ccc3ncn(C4CC5(CCN(C6CCN(c7cc8c(cc7F)c(N7CCC(=O)NC7=O)nn8C)CC6(F)F)CC5)C4)c(=O)c3c2)c1C#N (centres unmarked)	BRAF V600E (Homo sapiens, UniProt P15056+Q96SW2, V600E)	50 to 90%
CN(CCO)S(=O)(=O)Nc1ccc(F)c(Oc2ccc3ncn(C4CC5(CCN(C6CCC(c7cc8c(cc7F)c(N7CCC(=O)NC7=O)nn8C)CC6)CC5)C4)c(=O)c3c2)c1C#N (single isomer, unassigned)	BRAF V600E (Homo sapiens, UniProt P15056+Q96SW2, V600E)	50 to 90%
CCN(C)S(=O)(=O)Nc1ccc(F)c(Oc2ccc3ncc(OC4CCN(C5CCC(c6cc7c(cc6F)c(N6CCC(=O)NC6=O)nn7C)CC5)CC4)nc3c2)c1C#N (single isomer, unassigned)	BRAF V600E (Homo sapiens, UniProt P15056+Q96SW2, V600E)	< 50%
CCN(C)S(=O)(=O)Nc1ccc(F)c(Nc2ccc3ncn([C@@H]4COC5(CCN(C6CCC(c7cc8c(cc7F)c(N7CCC(=O)NC7=O)nn8C)CC6)CC5)C4)c(=O)c3c2F)c1C#N (single isomer, unassigned)	BRAF V600E (Homo sapiens, UniProt P15056+Q96SW2, V600E)	< 50%

Here is the next item to consider.
[in] Fill in: Emax of CCN(C)S(=O)(=O)Nc1ccc(F)c(Oc2ccc3ncn(C4CC5(CCN(C6CC7(C6)CN(c6ccc(NC8CCC(=O)NC8=O)cc6F)C7)CC5)C4)c(=O)c3c2)c1F (centres unmarked) is ___
[out] 50 to 90%
